Listed here are compounds together with their documented INHIBITION.
Test system: Plasmodium berghei
experiment_description: Screen against P. berghei liver stage (PbLuc), transformed with Luciferase, at 10uM
Assay type: functional, HepG2
assay_context: tested at 10 uM
Among all 69,000 compounds or so, about 8,600 (12%) showed an effect of 50% or more. Shown is part of a subset that was picked to be rich in strong results.
measurement_name: INHIBITION (%)

>>> observed("CN(C(=O)CSc1ncc[nH]1)c1ccccc1")
49.6
>>> observed("NCCc1cc(N2CCOCC2)nc(NC2CC2)n1")
18.25
>>> observed("c1ccc(CN2CCN(Cc3cscn3)CC2)cc1")
19.4
>>> observed("COc1c(CNCc2ccnc(N3CCCCC3)c2)c(C)nn1C")
87.3
>>> observed("CCn1ccnc1CN1CCN(CCOc2cccc(C#N)c2)CC1")
23.2
>>> observed("Cc1nc2c(c(NCCc3nc4c(s3)CCCC4)n1)CCNCC2")
25.8
>>> observed("COc1c(CNCc2ccnc(N3CCCC3)c2)c(C)nn1C")
-8.3
>>> observed("COc1c(CNCc2ccnc(N3CCOCC3)c2)c(C)nn1C")
19.4
>>> observed("COc1c(CNCc2cccnc2N2CCOCC2)c(C)nn1C")
-7.7
>>> observed("COc1cccc2cc(CNCc3ccnc(N4CCCCC4)c3)oc12")
-19.4
>>> observed("COCCN1C[C@@H]2CN(Cc3ccoc3)CCC[C@]2(C(=O)O)C1")
-9.02
>>> observed("CCN(CC)C(=O)CSc1ncc[nH]1")
44.2
>>> observed("CCN1CCCC1CN(Cc1ccoc1)CC1CCN(CCOC)CC1 (configuration not stated)")
53.7
>>> observed("CO[C@H]1CCN(C(=O)c2cc(C)on2)C[C@@H]1Cc1ccccc1")
2.58
>>> observed("Cc1nc2c(c(NCC(O)C(F)(F)F)n1)CCNCC2 (configuration not stated)")
93.2
>>> observed("Cc1noc(CNC(=O)NCC2(C)CCCc3ccccc32)n1 (configuration not stated)")
6.29
>>> observed("c1cncc(CN2CCn3cc(Cn4cccn4)nc3C2)c1")
31.7
>>> observed("c1coc(CN2CCCC3(COCCN(Cc4c[nH]nn4)C3)C2)c1 (configuration not stated)")
4.92
>>> observed("COc1c(CNCc2cccnc2N2CCCCC2)c(C)nn1C")
-91.6
>>> observed("Cc1nc2c(c(NCC(O)c3ccccc3Cl)n1)CCNCC2 (configuration not stated)")
-32.6
>>> observed("NC(=O)CS(=O)(=O)Cc1csc(-c2ccccc2)n1")
46.6
>>> observed("CCN1CCCC1CN(Cc1cc[nH]n1)CC1CCN(CCOC)CC1 (configuration not stated)")
45

* * *

Tested on: Plasmodium berghei
experiment_description: Screen against P. berghei liver stage (PbLuc), transformed with Luciferase, at 10uM
Type: functional, HepG2
assay_context: tested at 10 uM
Out of some 69,000 compounds screened, about 8,600 (12%) showed an effect of 50% or more. Many of the other results were omitted from the sample, so strong results are more common in it than they were.
Rule: INHIBITION under 10% gives class 0, otherwise class 1.

>>> assigned_category("CCS(=O)(=O)N1Cc2nccn2CC(Cn2cccn2)C1 (stereo unspecified)")
"class 1"
>>> assigned_category("Cn1cc(NC(=O)C2CC(c3ccccc3)C2)ccc1=O (stereo unspecified)")
"class 0"
>>> assigned_category("Cc1cc(N(Cc2cccs2)C2CC2)n2nc(C(F)(F)F)nc2n1")
"class 1"
>>> assigned_category("CN(C)Cc1nc2c(o1)CN(C(=O)NCc1cccc(F)c1)C2")
"class 1"
>>> assigned_category("CN1CCC(c2cccc(C(=O)N(C)C)n2)CC1")
"class 1"
>>> assigned_category("COCCN1CCCC(c2cncc(Oc3ccccc3OC)n2)C1 (stereo unspecified)")
"class 0"
>>> assigned_category("CCC(=O)Nc1cc(Br)cn(C)c1=O")
"class 0"
>>> assigned_category("CN(C)c1nccc(C2CCN(C(=O)CO)CC2)n1")
"class 0"
>>> assigned_category("CC(C)N1CCOCC2(CN(Cc3nccs3)CCO2)C1 (stereo unspecified)")
"class 1"
>>> assigned_category("CC(C)c1nn(C)c(N(C)C)c1CNC(C)c1ccccc1F (stereo unspecified)")
"class 1"
>>> assigned_category("Cc1ccc([C@@]2(O)CC[C@@H]3CN(S(=O)(=O)c4cn(C)nc4C)C[C@@H]32)cc1")
"class 1"

* * *

System: Plasmodium berghei
experiment_description: Screen against P. berghei liver stage (PbLuc), transformed with Luciferase, at 10uM
Type: functional, HepG2
assay_context: tested at 10 uM
The whole screen tested about 69,000 compounds, of which about 8,600 (12%) showed an effect of 50% or more. The full list was thinned out, with strong results kept by preference.
measurement_name: INHIBITION (%)

>>> observed("Fc1ccccc1C1(CNC2CCOC3(CCOCC3)C2)CCCC1 (stereo not drawn)")
14.4
>>> observed("CCOc1ncccc1NC(=O)NC1CCCN(S(C)(=O)=O)C1 (stereo not drawn)")
-2.19
>>> observed("COCC1CCN(S(=O)(=O)c2ccc(C(=O)NCC(F)F)cc2)C1 (stereo not drawn)")
10.6
>>> observed("O=C(NS(=O)(=O)Cc1ccc(F)cc1)C1CCc2ccccc21 (stereo not drawn)")
11.7
>>> observed("O=C(NS(=O)(=O)c1ccc(F)cc1)C1CCOc2ccccc21 (stereo not drawn)")
48.5
>>> observed("O=c1ccc2c(n1CCN1CCCC1)CCN(Cc1ccoc1)CC2")
8.47
>>> observed("Cn1nnc2c1CCN(C(=O)C1CC1)C2COCCN1CCCC1 (stereo not drawn)")
-6.23
>>> observed("COc1c(C2CCCN2C(=O)c2c(C)noc2C(C)C)c(C)nn1C (stereo not drawn)")
35.9

* * *

Test system: Plasmodium berghei
experiment_description: Screen against P. berghei liver stage (PbLuc), transformed with Luciferase, at 10uM
Format: functional, HepG2
assay_context: tested at 10 uM
The campaign covered roughly 69,000 compounds. About 8,600 (12%) showed an effect of 50% or more. The entries come from a sample that favours strong results as a whole.
Listed here are compounds together with their documented INHIBITION.
measurement_name: INHIBITION (%)

>>> observed("O=C1CCC(c2ccc(Cl)cc2)=NN1CN1CCCCCC1")
-52.7
>>> observed("O=C1N(Cc2cccnc2)CCC12CCCN(c1ncc(F)cn1)C2 (configuration not stated)")
-42
>>> observed("CCc1nnc(C(C)N2CCc3cncnc3C2)o1 (configuration not stated)")
2.43
>>> observed("CCc1nc(CN2CCCN(c3nn4cc(C)nc4s3)CC2)no1")
85.2
>>> observed("CCN(C)C(=O)c1ccnn1-c1ccc2ccccn12")
51.2
>>> observed("Cc1cccc(NC(=O)CNC(=O)Cn2ncc(Cl)c(Cl)c2=O)c1C")
5.14
>>> observed("COCCOc1nc(-c2ccccc2Cl)no1")
14.9
>>> observed("O=C(c1ccnn1-c1ccc2ccccn12)N1CCCC1")
30.3
>>> observed("N#CCCn1cnc2c(Br)cccc2c1=O")
33.6
>>> observed("CSCc1cc(F)ccc1CNCc1cccnc1")
35.4
>>> observed("CCN(Cc1nc(COC)no1)C(=O)CCn1c(C)cc2ccccc21")
36.7
>>> observed("CCc1nnc2n1CCN(C(=O)CCc1ccc(C)c(Cl)c1)C2")
-27
>>> observed("CSCC(=O)N1CCc2c(cnc(C)c2-c2noc(-c3ccco3)n2)C1")
33
>>> observed("CN(CCNC(=O)NCc1ccsc1)C1CCCC1")
-43.5
>>> observed("O=C(c1cccnc1)N1CCc2ncnc(N3CCOCC3)c2CC1")
41.6
>>> observed("COCCNC(=O)c1ccnn1-c1ccc2ccccn12")
39.3
>>> observed("CSCc1cc(F)ccc1CNCc1ccncc1")
24.2
>>> observed("COc1cc(S(=O)(=O)N2CCc3ccc(Cl)cc32)cc(C(=O)O)c1OC")
-11.4
>>> observed("CCc1ncncc1C(=O)N1CCN(Cc2ccsc2)CC1")
31.9
>>> observed("Cc1cccc(NC(=O)Cn2ncc(SCC(N)=O)c(Cl)c2=O)c1C")
50.5
>>> observed("O=C(Cn1cc(C(=O)O)cn1)Nc1c(Cl)cccc1Cl")
22.6
>>> observed("CCc1cc(N2CCC(NC3CN4CCC3CC4)CC2)nc(N(C)C)n1 (configuration not stated)")
62.4
>>> observed("Cc1cc(CN2CCN(c3nn4cc(C)nc4s3)CC2)on1")
37
>>> observed("O=C(NCCN1CCOCC1)c1ccnn1-c1ccc2ccccn12")
94
>>> observed("COC(C)(C)CC(C)NCc1cn2ccccc2n1 (configuration not stated)")
8.38
>>> observed("Cc1cn2nc(N3CCN(Cc4nc(C(C)C)no4)CC3)sc2n1")
42
>>> observed("Cc1cn2nc(N3CCN(Cc4cc(C)on4)CC3)sc2n1")
7.08
>>> observed("CC(C)C(C(=O)N1CCN(c2nccs2)CC1)n1cncn1 (configuration not stated)")
5.03
>>> observed("CCc1ncncc1C(=O)N1CCCN(Cc2ccccc2C)CC1")
19.6
>>> observed("CSCc1cc(F)ccc1CNCc1ncc[nH]1")
63.3
>>> observed("O=C1CC(c2ccc(O)cc2)c2c(n3ccsc3nc2=O)N1 (configuration not stated)")
2.66
>>> observed("COc1ccc(CN2CCN(C(C)=O)CC3(CC(=O)N(C)C3)C2)cc1 (configuration not stated)")
-7.6
>>> observed("O=C1CCCc2[nH]c(=O)c(C(=O)N3CCc4ccccc4C3)cc21")
14.1
>>> observed("O=C(CN1CCCC1c1cccs1)N1CCc2sccc2C1 (configuration not stated)")
19.2
>>> observed("Cc1nc(COCC2CN(C(=O)N(C)C)Cc3nccn3C2)cs1 (configuration not stated)")
45.4
>>> observed("CCc1nnsc1C(=O)N1CCCN(Cc2ccc(C)cc2)CC1")
29.4
>>> observed("N#Cc1ccc(N2CCC3(CCCN(c4ccccn4)C3)C2)nc1 (configuration not stated)")
12.1
>>> observed("O=C(NCCN1CCOCC1)c1ccn(-c2ccc3ccccn23)n1")
47.2
>>> observed("CCc1cc(N2CCC(N[C@@H]3CS(=O)(=O)C[C@H]3O)CC2)nc(N(C)C)n1")
35.3
>>> observed("O=C(c1ccnn1-c1ccc2ccccn12)N1CCOCC1")
13.1
>>> observed("CC(C)n1cnc2c1C(C(=O)NCCC#N)N(Cc1ccccc1)CC2 (configuration not stated)")
15.1
>>> observed("CCS(=O)(=O)CCCOc1nc(-c2ccccc2Cl)no1")
50
>>> observed("CCN(Cc1ccncc1)C(=O)CCn1c(C)cc2ccccc21")
14.9
>>> observed("Cc1cc(CCC(N)=O)cc(C2CCCN2Cc2ccccn2)n1 (configuration not stated)")
18.3
>>> observed("Cc1cc(CCC(N)=O)cc(C2CCCN2Cc2ccnn2C)n1 (configuration not stated)")
-2.11
>>> observed("CCc1cc(N2CCC(NC3CCOCC3)CC2)nc(N(C)C)n1")
29.1
>>> observed("CCN(Cc1noc(C)n1)C(=O)CCn1c(C)cc2ccccc21")
58.5
